- Test system: CCRIS mutagenicity, Ames/micronucleus/aberration tests
- ASSAY_OVERVIEW: CCRIS mutagenicity studies
- CONDITION_LABEL: Test System: AMES SALMONELLA TYPHIMURIUM; Strain/Indicator: TA100; Metabolic Activation: RAT, LIVER, S-9; Method: STANDARD PLATE
- Excerpt: The CCRIS database contains chemical records with carcinogenicity, mutagenicity, tumor promotion, and tumor inhibition test results. It was developed by the National Cancer Institute (NCI). Data are derived from studies cited in primary journals, current awareness tools, NCI reports, and other sources. Test results have been reviewed by experts in carcinogenesis and mutagenesis. CCRIS provides historical information from the years 1985 - 2011. It is no longer updated. […]
Active and inactive are the calls of the source. How the calls were made is not given here.
Write down the outcome that applies. Available outcomes: true (1) (active), false (0) (inactive)

Worked cases, answers included:
{"MOLECULE": "CCOc1ccc(NC(C)=O)cc1N", "ASSIGNED_CLASS": "false (0)"}
{"MOLECULE": "Clc1ccc(C(c2ccccc2Cl)C(Cl)Cl)cc1 (centres undefined)", "ASSIGNED_CLASS": "false (0)"}
{"MOLECULE": "CC(=O)c1ccc(S(=O)(=O)NC(=O)NC2CCCCC2)cc1", "ASSIGNED_CLASS": "false (0)"}
{"MOLECULE": "CN(C)CCN(Cc1cccs1)c1ccccn1", "ASSIGNED_CLASS": "false (0)"}
{"MOLECULE": "CC(C)COS(=O)(=O)c1ccccc1", "ASSIGNED_CLASS": "true (1)"}
{"MOLECULE": "O=NN(CCO)CCO", "ASSIGNED_CLASS": "false (0)"}
{"MOLECULE": "Nc1ccc2cc3ccc(N)cc3nc2c1", "ASSIGNED_CLASS": "false (0)"}
{"MOLECULE": "Cc1cccc(C)c1N=Nc1c(O)ccc2ccccc12", "ASSIGNED_CLASS": "false (0)"}
{"MOLECULE": "C#CCOS(=O)(=O)c1ccc(C)cc1", "ASSIGNED_CLASS": "true (1)"}
{"MOLECULE": "CC1=C[C@H](O)[C@H]2C[C@@H]1C2(C)C", "ASSIGNED_CLASS": "false (0)"}

// query Which outcome was assigned to C[C@H]1CCCC(=O)CCCCCc2cc(O)cc(O)c2C(=O)O1 in this test?
// result false (0)

// query Please indicate how the test categorized CCOC(=O)[C@H]1O[C@@H]1C(=O)N[C@@H](CC(C)C)C(=O)NCCC(C)C .
// result false (0)

// query State the result this test recorded for CCCCCCCOP(=S)([S-])OCCCCCCC.CCCCCCCOP(=S)([S-])OCCCCCCC.[Zn+2] .
// result false (0)

// query What outcome does the record of this test show for O=NN1CCCC1 ?
// result false (0)
